Assign melting point to each entry below.

The molecule listed as CCOC(=O)N1c2cc(OC)c(OC)cc2C(=O)C(=CN(C)C)C1C (stereo unspecified) has a reported melting point of 130 to 131 °C

The molecule listed as "Cc1cc(C)c(N2c3ccccc3Sc3ccccc32)c(C)c1" has a reported melting point of 192 to 200 °C

The molecule listed as "O=C(O)CS(=O)(=O)CCCCCNS(=O)(=O)c1ccc(Cl)cc1" has a reported melting point of 193 to 194 °C

The molecule listed as "CON=Cc1nc2c(N)nc3ccccc3c2n1CC(C)C" has a reported melting point of 181 to 183 °C

The molecule listed as "C=C(C)c1ccc2c(c1)Cc1ccccc1O2" has a reported melting point of 62 to 64 °C

The molecule listed as "Cc1nc(-c2ccc(OCC(C)C)c([N+](=O)[O-])c2)sc1C(=O)OCC(C)C" has a reported melting point of 112 to 113 °C

The molecule listed as "CN(C)CCc1c[nH]c2ccc([N+](=O)[O-])cc12" has a reported melting point of 132 to 135 °C

The molecule listed as CCC12CCC3c4ccc(OC)cc4C(C)CC3C1CCC2=O (stereo unspecified) has a reported melting point of 115 to 123 °C

The molecule listed as "CCc1nc2cnc3cc(Br)ccc3c2n1CC1CCN(C(=O)OC(C)(C)C)CC1" has a reported melting point of 208 to 209 °C

The molecule listed as CCN1CCCC1CNC(=O)c1sc(C=O)c(C)c1OC (stereo unspecified) has a reported melting point of 122 to 123 °C

The molecule listed as Cc1oc(-c2ccco2)nc1CCc1ccc(CCCC2OC(=O)NC2=O)cc1 (stereo unspecified) has a reported melting point of 123 to 124 °C

The molecule listed as "CC(C)C(=O)N[C@H]1CCc2c(c3cc(Br)ccc3n2Cc2ccccc2)C1" has a reported melting point of 177 to 179 °C

The molecule listed as "Cc1ccc(Cc2cnc(NCCCCNc3ccccn3)[nH]c2=O)cn1" has a reported melting point of 184 °C

The molecule listed as "CCOC(=O)c1c(OC)c([N+](=O)[O-])cn1C" has a reported melting point of 145 to 147 °C

The molecule listed as CCCCC(=O)OC1C(O)C(CO)OC1n1cnc2c(OC)nc(N)nc21 (stereo unspecified) has a reported melting point of 83 to 86 °C

The molecule listed as CCOC(=O)CCN1C(=O)NC(C)(CCc2cc(C(C)(C)C)c(O)c(C(C)(C)C)c2)C1=O (stereo unspecified) has a reported melting point of 100 °C

The molecule listed as "CCOC(=O)c1c(Cn2cncn2)nc2sc3ccncc3c2c1-c1ccc(OC)c(OC)c1" has a reported melting point of 166 to 167 °C

The molecule listed as "CC(C)CN1N(C)Nc2c3ncnc-3c3ccncc3n21" has a reported melting point of 157 to 158 °C

The molecule listed as CCCc1nc(C(O)C(C)(C)C)c(C(N)=O)n1Cc1ccc(-c2ccccc2-c2nnn[nH]2)cc1 (stereo unspecified) has a reported melting point of 174 to 176 °C

The molecule listed as "O=c1c(-c2ccccc2)c(CNc2ncnc3[nH]cnc23)oc2ccc(Br)cc12" has a reported melting point of 151 to 154 °C

The molecule listed as "Nc1ccc(C(=O)c2cccc(F)c2)cc1" has a reported melting point of 98 to 100 °C

Values from a melting point compilation (Tetko et al.; mined from patent text by program, amines drawn as free bases though some values may be those of a salt)
